Tested on: SK-MEL-5 melanoma
experimental protocol: NCI tumour cell line growth inhibition, 48 h
This listing pairs compounds with measured GI50.

Examples from the recorded data:
compound: Clc1ccccc1C(c1ccccc1)(c1ccccc1)n1ccnc1
experimental system: SK-MEL-5 melanoma
GI50: 2.61 µM
//
compound: C[C@@H]1CC[C@@H]2[C@@H]1[C@H](OC(=O)/C=C/c1ccccc1)[C@]1(c3ccccc3)C[C@@H](OC(=O)CO)[C@@]2(C)O1
experimental system: SK-MEL-5 melanoma
GI50: 13.4 µM
//
compound: Cc1ccn2c3c(c(C(=O)O)c2c1)C(=O)c1ccccc1C3=O
experimental system: SK-MEL-5 melanoma
GI50: 0.679 µM
//
compound: COc1ccc(/C=C/C=C(/C#N)C(N)=S)cc1
experimental system: SK-MEL-5 melanoma
GI50: 18.3 µM
//
compound: CC(=O)c1ccc(Nc2cc(-c3ccccc3)nc3c(O)cccc23)cc1
experimental system: SK-MEL-5 melanoma
GI50: 13 µM

Query string: Query for SK-MEL-5 melanoma: what GI50 does the record show for O=C(Nc1nc2ccccc2s1)OCC(F)(F)F ?
Result string: > 100 µM

Query string: Moving on to the next compound: COc1ccc(-c2cc(-c3cc(Cl)ccc3Cl)nc3[nH]c(-c4cc(F)c(Cl)cc4Cl)cc(=O)c23)cc1
Result string: 7.63 µM

Query string: Moving on to the next compound: COc1cc(/C=C\[N+](=O)[O-])ccc1O
Result string: 1.77 µM

Query string: Moving on to the next compound: Brc1cccc(-c2cc(-c3ccc4c(c3)OCCO4)[nH]n2)c1
Result string: 1.17 µM

Query string: Moving on to the next compound: C=C1C(O)C2CCC(C)(C)C(=O)C2=C(CC(C)C)C12CC2 (stereo not given)
Result string: 24.8 µM

---

This listing pairs compounds with measured TGI.
Tested on: KM12 colon
experimental protocol: NCI tumour cell line growth inhibition, 48 h

Examples from the recorded data:
compound: COc1cc2oc(-c3ccc(O)cc3)c(OC3OC(C)C(O)C(O)C3O)c(=O)c2c(O)c1OC (stereo not drawn)
TGI: > 100 µM
--
compound: COc1cc2c3c(cccc3c1)C(=O)N(CCN1CCCC1)C2=O
TGI: > 100 µM
--
compound: Cc1ccc(N=Nc2c3c(c(O)c4ccccc24)CCC(C)(C)O3)cc1
TGI: 55.7 µM
--
compound: CCCCCCCCCCCCC(=O)OC(c1cnco1)c1nc(C(O)CC(O)C(O)C(C)O)co1 (stereo not drawn)
TGI: 21.9 µM
--
compound: Clc1cc(N/N=C(/c2ccccc2)c2ncccn2)ncn1
TGI: > 100 µM
--
compound: CC(C)(C)OC(=O)NCCCCC(NC(=O)OCc1ccccc1)C(N)=O (stereo not drawn)
TGI: > 100 µM
--
compound: CC(C)=CCN1CC(C)C(=O)Nc2cc(Cl)ccc21 (stereo not drawn)
TGI: 59.8 µM
--
compound: O=c1c2c3ccccc3[nH]c2c2cccc3c2n1CCC3
TGI: > 100 µM

Query string: Please look up its TGI: c1sc(NC2=NCCO2)c2c1CCCC2
Result string: > 100 µM

Query string: Moving on to the next compound: COc1ccc(NC(=O)Nc2n[nH]c3ccccc23)cc1
Result string: > 100 µM

---

This listing pairs molecules with measured TGI.
Test system: 786-0 renal
experimental protocol: NCI tumour cell line growth inhibition, 48 h

Examples from the recorded data:
molecule: C=C1CCC2C(/C=C(\C)CCC1O)OC(=O)C2C (stereo unspecified)
TGI: > 100 µM

molecule: CCOC(=O)c1sc2nc(SC)nc3c2c1N=CN3c1ccc(Br)cc1
TGI: > 100 µM

molecule: C=CC1=CSNN1
TGI: > 100 µM

molecule: Cc1c(Cl)cccc1NC(=O)C(=O)C1C(=O)CC(C)(C)CC1=O
TGI: > 100 µM

molecule: N#CC1=C(N)OC2=C(CSc3ccccc32)C1c1ccc(Br)cc1 (stereo unspecified)
TGI: 22.8 µM

Now look at this one.
Query string: Please look up its TGI: COc1cc2c3c(cccc3c1)C(=O)N(CCN1CCCC1)C2=O
Result string: > 100 µM

---

System: SNB-19 CNS
experimental protocol: NCI tumour cell line growth inhibition, 48 h
This listing pairs compounds with measured TGI.

compound: O=C1CC2(C[C@@H]3CCCCCCCCC[C@@H](C3)C2)N1 (some centres not stated)
experimental system: SNB-19 CNS
TGI: 34.6 µM
--
compound: C[C@]12OC[C@H](c3ccccc3)N1C(=O)C1[C@H]2CC12SCCS2 (some centres not stated)
experimental system: SNB-19 CNS
TGI: > 100 µM
--
compound: C/C(=N\NC(=S)NC(C)C)c1nc2ncccc2[nH]1
experimental system: SNB-19 CNS
TGI: > 91.6 µM

Query string: Please look up its TGI: CO[C@@H](C(=O)OC1C=CC2(CC1)C(=O)N(C)c1ccccc12)c1ccccc1 (some centres not stated)
Result string: > 100 µM

Query string: Moving on to the next compound: Cc1ccc2c(c1)nc(N)n[n+]2[O-]
Result string: > 100 µM

Query string: Moving on to the next compound: CCCCCCCCCC[C@@H](O)[C@H]1CC[C@H]([C@H]2CC[C@H]([C@H](O)CCCCCCCCCC[C@@H]3CC(CC(C)=O)C(=O)O3)O2)O1 (some centres not stated)
Result string: > 50 µM

Query string: Moving on to the next compound: CCOP(=O)(OCC)[C@H](O)c1ccsc1
Result string: > 100 µM

Query string: Moving on to the next compound: CC(C)(C)c1cc(O)c(O)c(C(C)(C)C)c1
Result string: 20.3 µM

Query string: Moving on to the next compound: COc1cccc(/C=C/C(=O)c2cc3c(N)c(C(=O)Nc4ccccc4C)sc3nc2C)c1
Result string: 2.68 µM

Query string: Moving on to the next compound: O=C(c1cccs1)c1c(C(F)(F)F)n([O-])c2ccccc2[n+]1=O
Result string: 13.2 µM

Query string: Moving on to the next compound: COc1cc2c3c(cccc3c1)C(=O)N(CCN1CCCC1)C2=O
Result string: 58.6 µM

Query string: Moving on to the next compound: CCn1c(-c2nonc2N)nc2c(C#CCN)ncc(OCCCN)c21
Result string: > 25 µM

Query string: Moving on to the next compound: O=C1CC(O)c2c1csc2Br (configuration not stated)
Result string: > 100 µM

Query string: Moving on to the next compound: C=CCN(CC=C)Cn1c(=S)sc2ccccc21
Result string: > 100 µM

Query string: Moving on to the next compound: FC(F)(F)c1nc(-c2ccccc2Cl)[nH]c1C(F)(F)F
Result string: 8.27 µM

Query string: Moving on to the next compound: COc1cc(COC(=O)N[C@H](C(=O)O)C(C)(C)C)c([N+](=O)[O-])cc1OC
Result string: > 100 µM

Query string: Moving on to the next compound: CCOC(=O)CC1=Nc2ccccc2SC1
Result string: > 100 µM

Query string: Moving on to the next compound: C1COCCN1.C1COCCN1.N.N.[Cl-].[Pt+2]
Result string: > 100 µM

Query string: Moving on to the next compound: O=C1CC2C=CC(O)C(C1)C2 (configuration not stated)
Result string: > 100 µM

Query string: Moving on to the next compound: CCSc1nnc(CSc2nc(-c3ccccc3)c(-c3ccccc3)[nH]2)n1-c1ccccc1
Result string: 34.2 µM

Query string: Moving on to the next compound: Cn1cc(NC(=O)c2cc(NC(=O)CCCCCCCCCCC(=O)Nc3cc(C(=O)Nc4cc(C(=O)NCCC(=N)N)n(C)c4)n(C)c3)cn2C)cc1C(=O)NCCC(=N)N
Result string: > 100 µM

Query string: Moving on to the next compound: Nc1ccccc1Nc1ccccc1C(=O)[O-].Nc1ccccc1Nc1ccccc1C(=O)[O-].[Cu+2]
Result string: > 100 µM

---

Tested on: 786-0 renal
experimental protocol: NCI tumour cell line growth inhibition, 48 h
measurement label: TGI (µM)
Dear colleague, please return just the value in µM, with no unit written.

Examples from the recorded data:
compound: CCCCN(CC)c1nc(C)nc2c1c(C)c(C)n2-c1c(C)cc(C)cc1C
measurement label: TGI
units symbol: µM
endpoint result: 30.5
--
compound: O=c1oc2ccccc2c(O)c1C(c1cc(OCc2ccccc2)cc(OCc2ccccc2)c1)c1c(O)c2ccccc2oc1=O
measurement label: TGI
units symbol: µM
endpoint result: 31.7
--
compound: O=C(CCN1CCN(c2cnc3ccccc3n2)CC1)c1csc2ccccc12
measurement label: TGI
units symbol: µM
endpoint result: 79.5
--
compound: O=C(Nc1cccc(-n2ccc3c(NC(=O)c4ccccc4)nccc32)c1)c1cccc(C(F)(F)F)c1
measurement label: TGI
units symbol: µM
endpoint result: 1.9
--
compound: O=C(/C=C/c1ccccc1)/C=C/c1ccccc1O
measurement label: TGI
units symbol: µM
endpoint result: 32.4

Query string: Query for 786-0 renal: what TGI does the record show for COC1(C(=O)N2Cc3nc(Cl)nc(N[C@H](C)c4cc(N)cc(C(F)(F)F)c4)c3C2)CCOCC1 ?
Result string: 68.4

Query string: Moving on to the next compound: CC(=O)OCC1OC(O[C@@H]2C[C@H]3C(C)(C)[C@H](OC(C)=O)CC[C@]3(C)[C@H]3CCC4=C([C@@H](C)C[C@@H](O)[C@H](O)C(C)(C)O)CC[C@@]4(C)[C@@]32C)C(O)C(O)C1O (some centres not stated)
Result string: 32.7

Query string: Moving on to the next compound: [N-]=[N+]=Nc1c(Cl)c(=O)n(-c2ccccc2)c2ccccc12
Result string: 38.6

Query string: Moving on to the next compound: O=C1CC(O)c2c1csc2Br (configuration not stated)
Result string: 51.1

Query string: Moving on to the next compound: CNC(=O)c1ccccc1CC1(O)c2ccccc2Oc2ccccc21
Result string: 46.4

Query string: Moving on to the next compound: CCN1CCN(c2nc(NCCCNc3ccnc4cc(Cl)ccc34)c3ccccc3n2)CC1
Result string: 5.82

Query string: Moving on to the next compound: CCCCCCCCCCCCCCCC(=O)NCC(COP(=O)([O-])OCC[N+](C)(C)C)OCC (configuration not stated)
Result string: 5.82

Query string: Moving on to the next compound: CN=C(N)N/N=C(\c1ccccc1)c1ccc(Br)cc1
Result string: 4.91

Query string: Moving on to the next compound: CC(=O)NC1C(OCc2ccccc2)OC(CO)C(O)C1OCC(=O)N[C@@H](C)C(=O)N[C@H](CCC(=O)NCCNCCNc1c2ccccc2nc2cccc([N+](=O)[O-])c12)C(N)=O (some centres not stated)
Result string: 99.4

Query string: Moving on to the next compound: Cc1cccc(N2C(=O)C3ON(C(C(N)=O)c4ccccc4)C(c4c5ccccc5c(Cl)c5ccccc45)C3C2=O)c1C (configuration not stated)
Result string: 20.5
